outcome.measure: logP
Lab note: jot down the number only; don't add units.

Recorded logP of c1ccc2c(c1)Cc1cc3ccccc3cc1-2 , please. 5.75

// returns reported logP for input Cc1cccc2c1Cc1ccccc1-2 4.97

Quick check: logP of Cc1c2ccccc2c(C)c2ccccc12 ? 5.25

###

Experiment: method code SF-RC, from DOI: 10.1016/j.nucmedbio.2007.04.005, PMID: 17591554
Settings: pH 7.4
outcome.measure: logD
Just the number, please.

For the molecule shown here, COc1ccc(/C=C2\CCCN=C2c2cccnc2)c(OC)c1 , give the reported logD. 2.82

###

Test: method code SF-CR, from PMID: 15170
Conditions: pH 3.0
outcome.measure: logD

logD for CCc1nnc(NS(=O)(=O)c2ccc(N)cc2)s1 ? 1.01

###

Assay: method code SF-AS, from DOI: 10.1139/cjpp-75-12-1362, PMID: 9534947
outcome.measure: logP
Please give the numeric answer without any surrounding text.

Field request: logP | item: Cc1ncc(CO)c(/C=N/NC(=O)c2ccco2)c1O 1.39

# logP lookup, item O=C(N/N=C/c1c(O)ccc2ccccc12)c1cccc(F)c1 4.06

# lookup: logP of Nc1ccc(C(=O)N/N=C/c2c(O)ccc3ccccc23)cc1 3.04

###

outcome.measure: logP

Any idea what logP was measured for Cc1cn2c(n1)C1CC(c3ccccc3)CCC1C(C(=O)N(C)C)=C2 (stereo not drawn) ? 2.77

So what does the record say about logP for CC1N=C2C3=C(CCC(c4ccccc4)C3)C(C(=O)NCCO)=CN2C1C (stereo not drawn) ? 2.81

Give its logP value. Item: CC1N=C2C3=C(CCC(c4ccccc4)C3)C(C(N)=O)=CN2C1C (stereo not drawn) 3.21

###

Assay: method code SF-HPLC, from DOI: 10.1016/0378-5173(88)90064-6
Settings: pH 7.4
If the reported logD equals or exceeds 2, assign 1.0. If not, assign 0.0.

Reported logD at or above 2? CCN(CC)C(=O)COC(=O)C(C)c1ccc2cc(C(C)=O)ccc2c1 (stereo unspecified) 1.0

Reported logD at or above 2? CC(=O)c1ccc2cc(C(C)C(=O)OCC(N)=O)ccc2c1 (stereo unspecified) 1.0

// inclusive: logD at least 2? input: CC(=O)c1ccc2cc(C(C)C(=O)OCC(=O)N(CCO)CCO)ccc2c1 (stereo unspecified) 0.0

Please check the record CC(=O)c1ccc2cc(C(C)C(=O)OCC(=O)N(C)CC(N)=O)ccc2c1 (stereo unspecified) and state if its logD is at or above 2. 0.0

Check if logD >= 2 (inclusive). Item: CN(C)C(=O)COC(=O)c1ccccc1O 0.0

###

Assay: method code SF-F, from DOI: 10.1021/js950367f, PMID: 8901074
outcome.measure: logP
Would you mind answering with just the numeric figure?

Look up logP for this compound: COc1c2ccoc2cc2oc(=O)ccc12 2

###

Would you kindly list logD for each of these compounds?
Test: method code SF-AS, from DOI: 10.1135/cccc19881862
Conditions: pH 3.5
The response must contain the number and no unit.

I would be grateful if you could share the reported logD for O=C(O)CCCC(=O)c1ccc(-c2ccc(-c3ccccc3)cc2)cc1 . 3.35

Sample O=C(O)CCC(=O)c1ccc(-c2ccc(-c3ccccc3)cc2)cc1 — what was its logD? 3.2

###

Experiment: method code SF-HPLC, from PMID: 11745753
Conditions: pH 7.4
outcome.measure: logD
Lab note: record just the number, no unit beside it.

Returns the measured logD for the input molecule. Input: COC(=O)c1ccc(N)cc1 1.48

###

Assay: method code G-GLC, from DOI: 10.1021/es00171a006
outcome.measure: logP

Look at this compound and give its reported logP. Clc1c(Cl)c(Cl)c2c(oc3c(Cl)c(Cl)c(Cl)c(Cl)c32)c1Cl 7.59

###

Assay: method code SF-RC, from DOI: 10.1016/0014-2999(79)90231-0, PMID: 527663
outcome.measure: logP

Quick one: logP of CCC(c1ccccc1)c1c(O)c2ccccc2oc1=O (stereo unspecified) ? 3.62

###

Test: method code SF-HPLC, from DOI: 10.1007/s00216-006-0868-5, PMID: 17082876
outcome.measure: logP
Give the figure only, with no unit attached.

Param item = O=C1C(Cl)=C(Cl)C(=O)C(Cl)=C1Cl ; retrieve measured logP. 2.19

Quick one: logP of O=C(Nc1ccccc1)C(=O)Nc1ccccc1 ? 2

I am curious: what logP value has been reported for Cc1ccc(S(=O)(=O)Cl)cc1 ? 3.25

I am curious: what logP value has been reported for C=Cc1ccccc1C=C ? 3.49

###

Give measured logP for each item. Keep answers brief.

Return reported logP; argument: Clc1cccc(-c2c(Cl)ccc(Cl)c2Cl)c1Cl 6.04

For the compound Clc1cc(Cl)cc(-c2cc(Cl)c(Cl)cc2Cl)c1 , what logP is on record? 5.68

Tell me the measured logP of Clc1ccc(Cl)c(-c2cccc(Cl)c2Cl)c1 , please. 5.81

###

Assay: method code SF-AS, from DOI: 10.1213/00000539-199008000-00008, PMID: 2375517
outcome.measure: logP
Reply with the value as a number alone.

I am curious: what logP value has been reported for CCCNC(C)C(=O)Nc1ccccc1C (configuration not stated) ? 2.11

Given the entry CCN(CC)CCOC(=O)c1ccc(N)cc1Cl , report its measured logP. 2.86

###

Assay: method code SF-AS, from DOI: 10.1021/jm00212a022, PMID: 836502
outcome.measure: logP
No unit in the answer, only the number.

Give its logP value. Item: CCCOc1cc(N)ccc1C(=O)O 1.53

###

outcome.measure: logP
In your answer, state the number alone without any accompanying words.

Give the measured logP of CN1CN(c2ccccc2)C2(CCN(CCCC(=O)c3ccc(F)cc3)CC2)C1=O . 3.37

###

Experiment: method code SF-AS, from DOI: 10.1002/chin.198428254
Could you please report measured logP for the items listed next?
Answer with a number only.

What value of logP has been recorded for this entry: O=C(NCCN1CCN2Cc3[nH]c4ccccc4c3CC2C1)c1ccccc1[N+](=O)[O-] (stereo not drawn) 1.8

Item under review: c1ccc2c3c([nH]c2c1)CN1CCNCC1C3 (stereo not drawn) . Reported logP? 0.36

Query: logP; subject: O=C(NCCN1CCN2Cc3[nH]c4ccccc4c3CC2C1)c1ccccc1 (stereo not drawn) 1.52

###

Test: from Xu, W.; Sun, J.; Zhang, T.; Ma, B.; Chen, D.; He, Z. (2007). Determination of equilibrium solubility of oridonin and its apparent oil-water partition coefficient by HPLC. Journal of Shenyang …
outcome.measure: logP
The reply should be a number, written without any unit.

Could you share which logP value was measured for C=C1C(=O)[C@]23C(O)C1CC[C@H]2[C@@]12CO[C@]3(O)C(O)[C@@H]1C(C)(C)CCC2O (stereo partly specified) ? 1.66

###

outcome.measure: logP
Number only, no unit.

Sample CC(C)(CO)[C@@H](O)C(=O)NCCC(=O)O — what was its logP? -1.69

I'd like to know its logP. The compound in question is O=C(O)CCCC[C@@H]1SC[C@@H]2NC(=O)N[C@@H]21 0.39

What does the data say about its logP? Entry: CC(C=CC1=C(C)C=CCC1(C)C)=CC=CC(C)=CCO 7.41

###

For each entry below, report its logD value.
Assay: method code SF-RC, from DOI: 10.1021/jm301492y, PMID: 23214511
Settings: pH 7.4
Just the number, please, no unit attached.

Reported logD for CCCCCCNC(=O)c1ccc(O)c(-c2ccccc2)c1 : what is it? 3.67

Returns the measured logD for the input molecule. Input: O=C(NC1CCCCC1)c1ccc(O)c(-c2ccccc2)c1 2.85

###

Test: method code SF-AS, from DOI: 10.1016/s0006-291x(75)80410-4, PMID: 1111518
outcome.measure: logP
Lab note: record the figure alone, no unit after it.

Which measured logP value corresponds to C=CCN1CCN(C(=O)N=NC(=O)N2CCN(CC=C)CC2)CC1 ? 0.79

###

Assignment: determine reported logP for the given compounds.
Assay: method code SF, from DOI: 10.1016/0165-1218(78)90089-7, PMID: 362190
Please respond with just the number, no unit label.

Query (compound): CCN(CC)CCCNC(=O)C(=O)NN=Cc1ccc([N+](=O)[O-])o1 ; field requested: logP -1.12

Quick one: logP for C=CCOCC(O)Cn1ccnc1[N+](=O)[O-] (stereo not given) ? 0.3

I am curious: what logP value has been reported for Cn1cnc([N+](=O)[O-])c1Cl ? 0.3

What value of logP has been reported for the following compound? Cc1nc([N+](=O)[O-])cn1CCO -0.59

Recorded logP for NC(=O)/C(=C\c1ccc([N+](=O)[O-])o1)c1ccco1 , please? 0.15

###

I'd be grateful if you could share measured logP for these entries.
Give the figure by itself; no unit, no explanation.

Consider the molecule S=c1ssc2c1CCCCCCCCCC2 and give its measured logP. 5.8

May I ask what logP has been recorded for S=c1ssc(Cc2ccccc2)c1-c1ccccc1 ? 4.29

# logP lookup, item CCc1c(-c2ccccc2)ssc1=S 4.31

Query: logP; subject: CC1(C)C2Cc3ssc(=S)c3C1C2 (centres undefined) 3.52
